// provenance: the EternaBench riboswitch data

Tested on: MS2 coat protein
assay-explanation: apparent Kd, MS2 coat protein; higher = weaker binding; RNA-MaP array; FMN 200 µM where present
test-context: designed as: OFF switch for flavin mononucleotide; no ligand
Hi, to clarify the labels: criterion met covers apparent Kd from 10 nM upward, criterion not met covers anything below 10 nM.

# count of solved cases: 6
AAACAUGUCCGAGGAUAUCUGGAAACAUUUUCAAGAGAAGGCGGACAUGAGGAUCACCCAUGUCUCUCCUCAUCCACUACAAAU ... criterion not met
GCAGCCGAUGCAGGAUAUCAGCACGUGUAGUGCUGAGAAGGGCACAUGAGGAUCACCCAUGUGAUCAAUUAAUAUCGAUGCUGC ... criterion not met
CCGGGCUAGGAGAAGGGCUAGAGUGUGAUAUAUUUGCCCGCGAGCACAUGAGGAUCACCCAUGUAGCAGGAUAUCCAAGCCGGU ... criterion not met
AUCAGCUCGUCAGGAUAUACGUCACUGCGUCAGCAGUGUUGUAAGAUCACAUGAGGAUCACCCAUGUAGAAGGGACGAGCUGAU ... criterion not met
CCAUGCGGAUGAGGAUAUUCAUUCAUGAGGAUAGAAGAAGGCGUACAUGAGGAUCACCCAUGUAUACACAUGAGGAUCCCUUAC ... criterion met
AUAAGCUCGUCAGGAUAUACGUCACUGCUUCGGCAGUGAGGUAAGAUCACAUGAGGAUCACCCAUGUAGAAGGGACGAGCUUAU ... criterion not met

Assess whether reported apparent Kd for AACAACUCUGUGAGGAUAUGCAAUUGUUGAUCAAGGCAGAAGGCACAUGAGGAUCACCCAUGUUCCUACAAGGG sits at 10 nM or higher.
criterion met

* * *

System: MS2 coat protein
assay-explanation: apparent Kd, MS2 coat protein; higher = weaker binding; RNA-MaP array; FMN 200 µM where present
test-context: designed as: OFF switch for flavin mononucleotide; no ligand
Parameter apparent Kd: see the listing below.

Examples with their reported apparent Kd follow.
UGAUAGGACAGAGGAUAUACAGAUAGGAUCUACUAUCAAACAGUCCUGACAUGAGGAUCACCCAUGUAGAAGGCUGUCCUAUCU ... 22.7 nM
UUGCGACAUGAGGAUCACCCAUGUCAGGAUAUAUUGUAGAAACUGGUUGCGACCAGGCGUAGAAGGGACAUGGC ... 28.6 nM
UUCUUUACCUAGGAUAUCUUCGGUACGGUCCGGAGAGAAGGAGGUACAUGAGGAUCACCCAUGUCCCUCUGAAA ... 12.6 nM
UCAUGUUAGCAGGAUAUGCUAUUUAUUUUUUAUGCAGAAGGGCUUACAUGAGGAUCACCCAUGUGUUAGGUUUU ... 41.8 nM
UUAGGACAUGAGGAUCACCCAUGUGAGGAUAUGCUGCAGGGAGGUCCCAGCAAUAUUCGUAGAAGGCAUAAGGG ... 221 nM

apparent Kd lookup needed for GUUUUACAUGAGGAUCACCCAUGUGAGGAUAUAUUGUUAAUAGUGAUAAUUAUUGGUGGUAGAAGGCGCGUGAU , thanks.
46.8 nM

Now try CCCACGAAAGUCGAACGAUGAUGGAGAAGGACAAUAACAUGACAUGAGGAUCACCCAUGUGCCAUGUAGGAUAUCCAUCAUGGG .
7.49 nM

* * *

Parameter apparent Kd: see the listing below.
Tested on: MS2 coat protein
assay-explanation: apparent Kd, MS2 coat protein; higher = weaker binding; RNA-MaP array
test-context: designed as: OFF switch for flavin mononucleotide; no ligand
Supply the numeric figure in nM, leaving out any unit text.

AAACAAGUAGGAUAUACAUGAGGAUCACCCAUGUAUUGUGAGGAUAGUACUGUACCAUGUAGAAGGACUCCGGA ... 10.7
GGGCGACUAGGAUAUACAGGAAGUUAAUGAGUGUCAAAGAAACAUGAGGAUCACCCAUGUAGAAGGAGUGCUAU ... 11.2
GUAUCGGUUGAGAAGGCGGCGGAGACAUAACUUGGUCCCAACAUGAGGAUCACCCAUGUUAAAUCCGAGGAUAUCAACAAAGCC ... 6.84
AUCAAUGAUCGACAUGAGGAUCACCCAUGUGCUUGGCGACUAAGAAGGGCCAGGCCACCAAGGCGGCAGGAUAUUAGUAGGACC ... 84.2
ACCUGGCGGCAGAAGGCCCGCGAUUAACGUAAGGGAGGAUAUGCAUUGUGCGGUGGGACAUGAGGAUCACCCAUGUGCAGCCAG ... 672

apparent Kd lookup needed for UUCCUGAAAGGAUAUACCUGGCCCGUGAACUGGAUAAAAGCACAUGAGGAUCACCCAUGUAGAAGGUUCGAUUA , thanks.
7.14

Now try GAUCUGUGAGGAUAUUGUUAGAGCAUUCAACCAUCGAAUGCCAAGAAGGCACAUGAGGAUCACCCAUGUAGACA .
7.9

Now try CGAGCAAGAGGAUAUACGAAGACGGUAUGAGUCAACCUCAAACAUGAGGAUCACCCAUGUAGAAGGCUUCUCAU .
7.46

Now try UAUGUAUAGAAGGAUAUCUAAUUACGCCCGAUAAGAGAAGGUCUGACAUGAGGAUCACCCAUGUUAUGGGAGGC .
18.1

Now try UACUCAAGAGUAAGGAUAUAGAACCAAAUAGCGGACUAGAAGGUACAUGAGGAUCACCCAUGUCAAAGACAGAA .
7.44

Now try CAGUAAGUAGGAUAUGUAUCAAGCUACAUGAGGAUCACCCAUGUGAACCCUAACAGCUGAACAGAAGGACUGUGUG .
156

Now try CCGCGACCUGAGAAGGGCUGCCAAGGGAGACACAUGAGGAUCACCCAUGUCGGGUGGUCCUGCUAGCAGGAUAUCAUCGCAGGA .
173

Now try GCCUAUAUUGUCAGGAUAUGCAUAAAGGAAAAGAAGCAGAAGGGACAUGAGGAUCACCCAUGUUACAGCCAAUA .
6.84

Now try GAACCGUUUGAGAAGGUACACAUUCAGGUCGGUACUGGACAUGAGGAUCACCCAUGUGCCGGUGGUAAGGAUAUCAGAUGAGCU .
10.5

Now try GCCAGCAGUACAUGAGGAUCACCCAUGUCCCUUGUACUUUUAUAGGAUAUACGAGUGGCUACCAUGUAGAAGGAUAGAAUUGUC .
932

* * *

Tested on: MS2 coat protein
assay-explanation: apparent Kd, MS2 coat protein; higher = weaker binding; RNA-MaP array
test-context: designed as: ON switch for tryptophan; no ligand
property: apparent Kd (µM)
Supply the numeric figure in µM, leaving out any unit text.

Examples with their reported apparent Kd follow.
GUAUUCAUGACGGCCGCCACUGCAAGCCUCCUCAUGGCAGAUUGACAUGAGGAUCACCCAUGUCUCAGGACCGGGUCUGGCAUCC ... 0.188
GUGGACAUGAGGAUCACCCAUGUAAGUCGGCGAGGACCGGUACGGCCGCCACUCGUGUUCUGUCUCAGCUCAAACGUAGCCGGAA ... 0.0363
GUCCUCGACACGGCCGCCACUGGCUCGCCUGUUGGCGCCGACCCACAUGAGGAUCACCCAUGUUCCAGGACCGGGUGUCACAGCA ... 0.224

apparent Kd lookup needed for GACGAGUAGACGGCCGCCACUAUGCUGCGCAGCCCUAGAAACGCACAUGAGGAUCACCCAUGUCUUAGGACCGGGUCGAACUUAA , thanks.
0.0785

Now try GAAGACAUGAGGAUCACCCAUGUUACACACCGAGGACCGGUACGGCCGCCACUCGUAGGCCCUCGGCUCACCUGAGAUCCGCAUC .
0.0238

Now try GGCGACAUGAGGAUCACCCAUGUGACACCUCGAGGACCGGUACGGCCGCCACUCGUAACCUGCACUAUAGCUACCACGAUUAGCC .
0.193

* * *

Tested on: MS2 coat protein
assay-explanation: apparent Kd, MS2 coat protein; higher = weaker binding; RNA-MaP array
test-context: ligand present: flavin mononucleotide; designed as: ON switch for flavin mononucleotide
property: apparent Kd (nM)
Supply the numeric figure in nM, leaving out any unit text.

Examples with their reported apparent Kd follow.
GACGAGGAACCAAAGGAUAUACACAUAAACACAUGAGGAUCACCCAUGUAUUAGAGGAUAAACAUGUAGAAGGUUGAUACGGCGUG ... 36.9
CACCCGUCGACUUAGGAUAUACUGUUGUGAACAUGAGGAUCACCCAUGUAUUAAGCUAGAACGAAGUAGAAGGAAGUUUUCCUUGC ... 13.1
AUAAAACUAAUACAUGAGGAUCACCCAUGUGAAACACAUACGAGAAGGGCGACAGUCUCAUACACGCAGGAUAUCGGCUAAACG ... 9.95
UCCACGGACCAAGGAUAUCCACAGUGAACCAGAGGAGAAGGUGGGAAUUACAUGAGGAUCACCCAUGUACGGGAUCUCCUGUAU ... 41.7

API: the following record is the query input.
apparent Kd lookup needed for ACCCUCUAUGAGAAGGAGAGCUUCGCUAGUUAUCUAGGAUAUCACGGAGGACCACUGACACUCCGACAUGAGGAUCACCCAUGU , thanks.
13.9
